Data origin, for the record: PubChem BioAssay AID1259245

Target: Voltage-dependent calcium channel gamma-2 subunit (Mus musculus) + Glutamate receptor 2 (Rattus norvegicus) (UniProt O88602+P19491)
Sequence (O88602 whole entry, looked up): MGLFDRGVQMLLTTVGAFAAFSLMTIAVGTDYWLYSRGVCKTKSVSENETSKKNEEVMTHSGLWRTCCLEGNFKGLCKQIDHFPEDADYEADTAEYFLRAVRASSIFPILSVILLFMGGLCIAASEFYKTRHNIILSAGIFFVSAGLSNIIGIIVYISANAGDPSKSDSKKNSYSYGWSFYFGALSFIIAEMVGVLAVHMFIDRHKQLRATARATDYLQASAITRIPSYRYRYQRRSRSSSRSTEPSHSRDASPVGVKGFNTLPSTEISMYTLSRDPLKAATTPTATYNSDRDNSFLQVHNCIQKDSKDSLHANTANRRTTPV
Sequence (P19491 whole entry, looked up): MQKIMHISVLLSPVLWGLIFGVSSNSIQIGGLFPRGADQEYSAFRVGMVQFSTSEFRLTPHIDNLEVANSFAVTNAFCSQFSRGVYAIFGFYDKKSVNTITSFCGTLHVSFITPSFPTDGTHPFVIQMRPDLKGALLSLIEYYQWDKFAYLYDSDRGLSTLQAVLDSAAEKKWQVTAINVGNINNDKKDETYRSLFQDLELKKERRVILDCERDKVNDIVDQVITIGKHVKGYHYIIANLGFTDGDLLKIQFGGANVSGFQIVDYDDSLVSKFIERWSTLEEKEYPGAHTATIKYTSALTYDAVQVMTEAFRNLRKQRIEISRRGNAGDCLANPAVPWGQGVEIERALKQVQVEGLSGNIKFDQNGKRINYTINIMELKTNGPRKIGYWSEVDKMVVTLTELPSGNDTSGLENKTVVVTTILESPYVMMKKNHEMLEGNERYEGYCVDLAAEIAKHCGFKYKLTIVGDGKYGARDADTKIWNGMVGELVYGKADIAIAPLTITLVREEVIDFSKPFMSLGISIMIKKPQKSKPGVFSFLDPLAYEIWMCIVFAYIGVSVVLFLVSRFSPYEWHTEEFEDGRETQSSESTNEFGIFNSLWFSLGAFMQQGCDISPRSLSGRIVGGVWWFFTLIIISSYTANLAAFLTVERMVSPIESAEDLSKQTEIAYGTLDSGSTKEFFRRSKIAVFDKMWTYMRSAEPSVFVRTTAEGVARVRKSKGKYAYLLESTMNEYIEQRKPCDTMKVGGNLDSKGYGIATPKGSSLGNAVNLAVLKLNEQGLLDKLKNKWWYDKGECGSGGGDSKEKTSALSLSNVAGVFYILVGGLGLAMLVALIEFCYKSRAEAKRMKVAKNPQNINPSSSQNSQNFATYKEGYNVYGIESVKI
Assay: modulators of GluA2-stargazin AMPA receptor complexes, primary screen, cell-based, membrane potential dye (AID 1259245)
Conditions: HEK293 GluA2+stargazin, membrane potential dye (FDSS), glutamate EC50, at 30 µM, hits were called plate by plate, in both directions; measured here: glutamate response slope, % max
About 1,400 (3.5%) of roughly 40,000 compounds were called active. The full list was thinned out, with actives kept by preference.
Quantity: glutamate slope, % of max (%)
Respond numerically; units are % and should not be typed.

Challenge: Entry `Cc1[nH]c(=O)[nH]c(=O)c1CC(=O)N1CCN(S(C)(=O)=O)CC1` has what glutamate slope, % of max?
Response given: 86.1

Challenge: Entry `Cc1cc(S(=O)(=O)NCCn2nc(-c3ccc(F)cc3)ccc2=O)ccc1F` has what glutamate slope, % of max?
Response given: 55.6

Challenge: Entry COc1cccc(C(CNC(=O)c2ccc(OC(C)C)cc2)N2CCOCC2)c1 (stereo unspecified) has what glutamate slope, % of max?
Response given: 42.1

Challenge: Entry `O=C(NCc1ccsc1)c1c(F)cccc1F` has what glutamate slope, % of max?
Response given: 48.6

Challenge: Entry `COc1ccc(CC(=O)Nc2ccc3c(c2)N(S(=O)(=O)c2ccccc2)CCC3)cc1` has what glutamate slope, % of max?
Response given: 74.3

Challenge: Entry `Cn1nnc2c(N(CCc3ccccc3)Cc3ccccc3)ncnc21` has what glutamate slope, % of max?
Response given: 57.6

Challenge: Entry COc1ccc(-n2nnnc2SC(C)C(=O)Nc2ccccc2Cl)cc1 (stereo unspecified) has what glutamate slope, % of max?
Response given: 55.7

Challenge: Entry `CCOc1ccccc1Nc1nnc(Cc2ccc(OC)cc2)c(=O)[nH]1` has what glutamate slope, % of max?
Response given: 67.9

Challenge: Entry `COc1ccc(S(=O)(=O)Nc2ccc(N3CCCCS3(=O)=O)cc2)cc1F` has what glutamate slope, % of max?
Response given: 44.9

Challenge: Entry `COCC(=O)Nn1cnc2c(cnn2C(C)(C)C)c1=O` has what glutamate slope, % of max?
Response given: 5.77

Challenge: Entry `Cc1ccccc1C(=O)Nn1cnc2c(cnn2C(C)(C)C)c1=O` has what glutamate slope, % of max?
Response given: 53.1

Challenge: Entry COc1ccc(-c2cc3ccc4c(c3oc2=O)CN(C2CCS(=O)(=O)C2)CO4)cc1OC (stereo unspecified) has what glutamate slope, % of max?
Response given: 43.1

Challenge: Entry Cc1cc(S(=O)(=O)NCC(O)c2ccc(C(F)(F)F)cc2)ccc1F (stereo unspecified) has what glutamate slope, % of max?
Response given: 41.3

Challenge: Entry `COc1ccc(CCS(=O)(=O)Nc2ccc3c(c2)N(C(C)=O)CC3)cc1` has what glutamate slope, % of max?
Response given: 47.2

Challenge: Entry `O=C(NC(=S)Nc1ccc(S(=O)(=O)N2CCOCC2)cc1)c1sc2ccccc2c1Cl` has what glutamate slope, % of max?
Response given: 52.2

Challenge: Entry `Cn1cc(C(=O)NCc2c(F)cccc2F)nn1` has what glutamate slope, % of max?
Response given: 99.8

Challenge: Entry `O=C(Nc1sc2ccccc2c(=O)c1-c1ccc2c(c1)OCO2)c1ccco1` has what glutamate slope, % of max?
Response given: 55.4

Challenge: Entry `COc1ccc(NC(=O)COc2ccccc2F)cc1N1CCCCC1=O` has what glutamate slope, % of max?
Response given: 35.3

Challenge: Entry `CCOC(=O)c1csc(NC(=O)c2cc(C)no2)n1` has what glutamate slope, % of max?
Response given: 37.1

Challenge: Entry `Cc1cccc(C(=O)Nc2cccc(N3CCCC3=O)c2)c1` has what glutamate slope, % of max?
Response given: 67.6

Challenge: Entry `Cc1nc(NC(=O)c2ccc3c(c2)CCCC3)sc1C` has what glutamate slope, % of max?
Response given: 50.6

Challenge: Entry CS(=O)(=O)N1CCCCC1C(=O)Nc1nc(-c2ccccn2)cs1 (stereo unspecified) has what glutamate slope, % of max?
Response given: 58.9

Challenge: Entry `O=C(COc1ccc(Cl)cc1)NCCOc1ccc2nnc(-c3cccc(F)c3)n2n1` has what glutamate slope, % of max?
Response given: 69.7

Challenge: Entry `COC(=O)N1CCC(CNC(=O)c2ccc(F)cc2)CC1` has what glutamate slope, % of max?
Response given: 66.5

Challenge: Entry `Cc1ccc(C(=O)Nc2cccc(N3CCCC3=O)c2)cc1[N+](=O)[O-]` has what glutamate slope, % of max?
Response given: 54.6

Challenge: Entry `CC(C)Sc1ccc(C(=O)Nc2nc(-c3ccccn3)cs2)cc1` has what glutamate slope, % of max?
Response given: 2.45

Challenge: Entry COc1ccc(S(=O)(=O)NCC(O)c2cccn2C)c(C)c1 (stereo unspecified) has what glutamate slope, % of max?
Response given: 60.7

Challenge: Entry `CSc1ccc(CC(=O)Nc2nc(-c3nc4ccccc4s3)cs2)cc1` has what glutamate slope, % of max?
Response given: 57.3

Challenge: Entry O=C(NC(C(=O)O)C12CC3CC(CC(C3)C1)C2)c1cc([N+](=O)[O-])ccc1Cl (stereo unspecified) has what glutamate slope, % of max?
Response given: 56.5

Challenge: Entry `C=CCOC(=O)COc1ccc2c(c1)O/C(=C\c1cc(OC)ccc1OC)C2=O` has what glutamate slope, % of max?
Response given: 60.4

Challenge: Entry `COc1ccc(N(Cc2cccc(C)c2)S(=O)(=O)c2ccc3nnc(C)n3c2)cc1` has what glutamate slope, % of max?
Response given: 70.3

Challenge: Entry `COc1ccc2c(c1)c(/C=C1\Oc3cc(O)cc(C)c3C1=O)cn2C` has what glutamate slope, % of max?
Response given: 43.9

Challenge: Entry `O=C(NCc1ccc(Cl)cc1)C(=O)NCc1c(F)cccc1F` has what glutamate slope, % of max?
Response given: 66.8

Challenge: Entry `CCOc1ccc(N2CCCn3c2nc2c3c(=O)n(CCN3CCOCC3)c(=O)n2C)cc1` has what glutamate slope, % of max?
Response given: 27.7

Challenge: Entry `CCOC(=O)CNC(=O)C(=O)c1c(C)[nH]c2ccccc12` has what glutamate slope, % of max?
Response given: 67.4

Challenge: Entry COc1ccc2sc(N(CC3CCCO3)C(=O)C3CCCC3)nc2c1 (stereo unspecified) has what glutamate slope, % of max?
Response given: 33.1
